target: T1, human ALPP on CHO cells (human, UniProt P05187 23-506); test: flow cytometry, CHO cells, KDapp
T1 construct: whole, on cells; also called CHO-ALPP
T1 sequence (P05187 23-506): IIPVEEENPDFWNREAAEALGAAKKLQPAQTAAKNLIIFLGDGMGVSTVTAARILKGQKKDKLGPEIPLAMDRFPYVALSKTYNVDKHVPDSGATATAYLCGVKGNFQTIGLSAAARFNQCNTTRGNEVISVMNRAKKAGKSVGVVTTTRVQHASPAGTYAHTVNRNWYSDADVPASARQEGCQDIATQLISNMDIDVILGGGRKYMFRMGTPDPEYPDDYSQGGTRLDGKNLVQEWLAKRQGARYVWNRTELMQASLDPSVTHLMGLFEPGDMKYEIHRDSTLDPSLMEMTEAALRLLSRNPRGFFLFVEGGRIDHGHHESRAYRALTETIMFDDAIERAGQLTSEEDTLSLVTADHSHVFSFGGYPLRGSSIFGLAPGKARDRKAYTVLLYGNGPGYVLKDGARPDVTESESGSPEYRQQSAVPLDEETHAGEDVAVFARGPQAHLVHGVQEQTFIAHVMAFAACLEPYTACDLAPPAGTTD
attribute.measured: pKd
Notebook: values listed as pKd are -log10 of the concentration (mol/L).

binder	attribute.measured	value.reported
D10 His (VHH, not shown: small tags and cut ends) VHH: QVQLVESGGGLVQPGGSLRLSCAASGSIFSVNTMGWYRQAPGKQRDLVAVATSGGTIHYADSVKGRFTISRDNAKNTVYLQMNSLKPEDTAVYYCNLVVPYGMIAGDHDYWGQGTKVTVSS	pKd	8.47

pKd for A05 His (VHH, not shown: small tags and cut ends, also called #249) VHH: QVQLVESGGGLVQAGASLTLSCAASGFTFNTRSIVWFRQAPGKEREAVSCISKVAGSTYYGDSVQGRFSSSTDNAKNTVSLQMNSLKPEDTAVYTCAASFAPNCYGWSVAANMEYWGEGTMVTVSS is 8.42

Short answer for C07 His (VHH, not shown: small tags and cut ends, also called #258) VHH: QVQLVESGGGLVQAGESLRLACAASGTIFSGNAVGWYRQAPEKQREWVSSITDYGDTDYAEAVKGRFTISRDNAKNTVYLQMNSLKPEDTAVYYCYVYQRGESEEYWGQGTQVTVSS : pKd was 8.46

The binder listed as F05 His (VHH, not shown: small tags and cut ends) VHH: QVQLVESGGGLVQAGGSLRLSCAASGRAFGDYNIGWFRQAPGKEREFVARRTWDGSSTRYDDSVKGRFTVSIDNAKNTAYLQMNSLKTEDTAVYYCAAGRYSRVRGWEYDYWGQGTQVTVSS has a reported pKd of 8.64

# binder E10 His (VHH, not shown: small tags and cut ends, also called #265) VHH: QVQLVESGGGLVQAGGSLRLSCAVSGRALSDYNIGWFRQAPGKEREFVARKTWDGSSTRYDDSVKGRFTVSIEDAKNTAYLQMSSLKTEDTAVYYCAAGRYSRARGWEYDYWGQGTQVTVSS ; its pKd = 8.46

For F08 His (VHH, not shown: small tags and cut ends, also called #269) VHH: QVQLVESGGGSVQAGGSLRLSCAASGPSLSNYAMGWFRQAPGKEREFVAGISWGGGRTSYTDSVKGRFTISRDNAKNTVYLQMNNLKPEDTGVYYCAGRYGRGRNVEYEYDYWGQGTQVTVSS the binder record lists pKd as 8.30
